Test system: Rattus norvegicus
Assay: Anti-inflammatory activity against carrageenan-induced paw edema in female rats relative to phenylbutazone by p.o. administration.
Assay type: functional
// NB: equality with 0.7 counts as rule not met; only Relative potency strictly below is rule met

| COMPOUND | CLASS_NAME |
| --- | --- |
| CC(C(=O)O)c1cc(C(=O)c2ccccc2)c2occc2c1 (configuration not stated) | rule not met |
| O=C(O)Cc1cc(C(=O)c2ccccc2)c2sccc2c1 | rule met |
| CSc1ccc(C(=O)c2cc(CC(=O)O)cc3c2OCC3)cc1 | rule met |
| O=C(O)Cc1cc2c(c(C(=O)c3ccc(Cl)cc3)c1)OCC2 | rule not met |
| O=C(O)Cc1cc(C(=O)c2ccccc2)c2occc2c1 | rule not met |
| O=C(O)Cc1cc(C(=O)c2ccc(Cl)cc2)c2occc2c1 | rule met |
| COc1ccc(C(=O)c2cc(CC(=O)O)cc3ccoc23)cc1 | rule not met |
| CSc1ccc(C(=O)c2cc(CC(=O)O)cc3ccoc23)cc1 | rule not met |
| C[S+]([O-])c1ccc(C(=O)c2cc(CC(=O)O)cc3ccoc23)cc1 (configuration not stated) | rule not met |
| O=C(O)Cc1cc2c(c(C(=O)c3ccc(Cl)cc3)c1)SCC2 | rule met |
| O=C(O)Cc1cc(C(=O)c2ccc(Cl)cc2)c2sccc2c1 | rule not met |
| COc1ccc2c(c1)c(CC(=O)O)c(C)n2C(=O)c1ccc(Cl)cc1 | rule not met |
| CC(C(=O)O)c1cc(C(=O)c2ccc(Cl)cc2)c2occc2c1 (configuration not stated) | rule not met |
| CC(C(=O)O)c1cc(C(=O)c2ccc(C=O)cc2)c2occc2c1 (configuration not stated) | rule not met |
| CSc1ccc(C(=O)c2cc(C(C)C(=O)O)cc3ccoc23)cc1 (configuration not stated) | rule not met |
| O=C(O)Cc1cc2c(c(C(=O)c3ccccc3)c1)SCC2 | rule met |
